Assay Notes: Inhibition of yeast alpha-glucosidase type 3 using p-nitrophenyl-alpha-D-glucopyranoside as substrate preincubated with substrate for 5 mins prior to enzyme challenge for 30 mins by absorbance analysis
Parameters: species or system Saccharomyces cerevisiae
pIC50: −log10 of the molar value.
Assign class by pIC50: not lower than 4 means true (1); lower than 4 means false (0).

// below: answered compounds
Compound | Group Label
O=C(/C=C/c1ccc2c(c1)OCO2)c1ccccc1O | false (0)
O=C(On1cc(C2(O)CCCCC2)nn1)c1ccccc1 | false (0)
COc1cccc(-n2cc(C3(O)CCCCC3)nn2)c1 | false (0)
COc1cccc(/C=C/C(=O)c2ccccc2)c1 | false (0)
O=C(/C=C/c1ccc2c(c1)OCO2)c1ccccc1 | false (0)
O=[N+]([O-])c1ccc(-n2cc(C3(O)CCCCC3)nn2)cc1 | false (0)
CCCCCCCCCCCCCCCCn1cc(-c2ccccc2)nn1 | false (0)
OC1(c2cn(-c3ccc(Cl)cc3)nn2)CCCCC1 | false (0)
OC1(c2cn(-c3ccncc3)nn2)CCCCC1 | false (0)
Clc1ccccc1-n1cc(-c2ccccc2)nn1 | true (1)

Inquiry: Record O=[N+]([O-])c1ccccc1-n1cc(C2(O)CCCCC2)nn1 ; criterion: pIC50 no lower than 4. Met?
Reply text: false (0)

Inquiry: What do you have for Oc1ccccc1C1=Nc2ccccc2SC(c2ccccc2)C1 (stereo not given) ?
Reply text: true (1)
